assay: Caco-2 bidirectional assay (A-B and B-A) to study the effect of piperine (P-gp inhibitor) on the permeability; format: in vitro ADME; conditions: human; Digoxin 10 μM; Caco-2 monolayer, HBSS pH 7.4
readout-name: Papp B→A at 120 min, 10 μM
Dear colleague, please send the value followed by its unit.

Endpoint output: Papp B→A at 120 min, 10 μM of C[C@H]1O[C@@H](O[C@H]2[C@@H](O)C[C@H](O[C@H]3[C@@H](O)C[C@H](O[C@H]4CC[C@@]5(C)[C@H](CC[C@@H]6[C@@H]5C[C@@H](O)[C@]5(C)[C@@H](C7=CC(=O)OC7)CC[C@]65O)C4)O[C@@H]3C)O[C@@H]2C)C[C@H](O)[C@@H]1O [Digoxin] . Value?
99.7 nm/s
